Measured values drawn from patent US6124342A for this set.

tested on: DNA; assay: Light absorption characteristics under existence of DNA (Table 2); assay type: physicochemical; details: with DNA
Task for the reader: assign each of the following compounds its reported Absorption (max) Peak Under existence of DNA.

# Absorption (max) Peak Under existence of DNA lookup, item CCN(CC)c1ccc(C=Cc2ccc(C=Cc3cc(-c4ccccc4)cc(-c4ccccc4)[o+]3)cc2)cc1
720 nm

# Absorption (max) Peak Under existence of DNA lookup, item CN(C)c1ccc(C=CC=Cc2cc(-c3ccccc3)[o+]c(-c3ccccc3)c2)cc1
720 nm

# Absorption (max) Peak Under existence of DNA lookup, item Cc1cc(-c2ccc(N(C)C)cc2)cc(-c2ccc(N(C)C)cc2)[o+]1
580 nm

# Absorption (max) Peak Under existence of DNA lookup, item CN(C)c1ccc(C=Cc2cc(-c3ccccc3)cc(-c3ccccc3)[s+]2)cc1
610 nm

# Absorption (max) Peak Under existence of DNA lookup, item Cc1cc(-c2ccc(N(C)C)cc2)cc(-c2ccc(N(C)C)cc2)[s+]1
620 nm

# Absorption (max) Peak Under existence of DNA lookup, item CN(C)c1ccc(C=CC(C=Cc2ccc(N(C)C)cc2)=Cc2cc(-c3ccccc3)[o+]c(-c3ccccc3)c2)cc1
660 nm

---

Assay: Light absorption characteristics without DNA (Table 2)
Assay type: physicochemical
Settings: no DNA
Description: Typical examples of compounds represented by the formula [I] which can be used as the active ingredient in a medicament for the photochemical treatment of cancer according to the present invention are shown in Table 1 below. Almost all the compound shown in Table 2 have their own absorption peaks in the region 600 nm or above, and have molar absorption coefficients as large as 5-8.5×10^4 l/mol.cm which enables more efficient use to be made of the light in photochemical treatment. […]
So basically, if Absorption (max) Peak Under no existence of DNA comes in under 600 nm it's T, and if it's 600 nm or more it's F.

Check if Absorption (max) Peak Under no existence of DNA falls below 600 nm for Cc1cc(-c2ccc(N(C)C)cc2)cc(-c2ccc(N(C)C)cc2)[s+]1 .
T

Check if Absorption (max) Peak Under no existence of DNA falls below 600 nm for CCN(CC)c1ccc(C=Cc2ccc(C=Cc3cc(-c4ccccc4)cc(-c4ccccc4)[o+]3)cc2)cc1 .
F

Check if Absorption (max) Peak Under no existence of DNA falls below 600 nm for CN(C)c1ccc(C=CC=Cc2cc(-c3ccccc3)[o+]c(-c3ccccc3)c2)cc1 .
F

Check if Absorption (max) Peak Under no existence of DNA falls below 600 nm for CN(C)c1ccc(C=CC(C=Cc2ccc(N(C)C)cc2)=Cc2cc(-c3ccccc3)[o+]c(-c3ccccc3)c2)cc1 .
F

Check if Absorption (max) Peak Under no existence of DNA falls below 600 nm for CN(C)c1ccc(C=Cc2cc(-c3ccccc3)cc(-c3ccccc3)[s+]2)cc1 .
F

Check if Absorption (max) Peak Under no existence of DNA falls below 600 nm for Cc1cc(-c2ccc(N(C)C)cc2)cc(-c2ccc(N(C)C)cc2)[o+]1 .
T
